# TEST_SUMMARY: Caco-2 permeability screening
# Type: in vitro ADME
# CONDITION_DESCRIPTION: human, Caco-2, pH 7.4; known drug standards; read-out: Permeability Ranking
EXPERIMENTAL_ENDPOINT: Papp at 60 min, 20 μM

Query: // returns reported Papp at 60 min, 20 μM for input CN(C)C(=O)C(CCN1CCC(O)(c2ccc(Cl)cc2)CC1)(c1ccccc1)c1ccccc1 [Loperamide, reference compound]
Reply: 3.51 to 5.33 ×10⁻⁶ cm/s

###

# TEST_SUMMARY: Microsomal clearance assay
# Assay type: in vitro ADME, rat
# CONDITION_DESCRIPTION: 2 μM, 0.5 mg/mL rat liver microsomes, NADPH, 30 min; read-out: experimental CLint (microsomes)
EXPERIMENTAL_ENDPOINT: CLint scaled

Query: // returns reported CLint scaled for input `Oc1ccccc1/C=N/c1ccccc1/N=C/c1ccccc1O.[Ga+3]`
Reply: 21.3 to 63 mL/min/kg
